Where these numbers come from: paper PMC4336329

- measurement target: human ether-à-go-go-related gene (hERG) potassium channel (human);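 further: peak tail current of the secondary pulse compared with the same well before compound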
- Sequence (Q12809 whole entry, looked up): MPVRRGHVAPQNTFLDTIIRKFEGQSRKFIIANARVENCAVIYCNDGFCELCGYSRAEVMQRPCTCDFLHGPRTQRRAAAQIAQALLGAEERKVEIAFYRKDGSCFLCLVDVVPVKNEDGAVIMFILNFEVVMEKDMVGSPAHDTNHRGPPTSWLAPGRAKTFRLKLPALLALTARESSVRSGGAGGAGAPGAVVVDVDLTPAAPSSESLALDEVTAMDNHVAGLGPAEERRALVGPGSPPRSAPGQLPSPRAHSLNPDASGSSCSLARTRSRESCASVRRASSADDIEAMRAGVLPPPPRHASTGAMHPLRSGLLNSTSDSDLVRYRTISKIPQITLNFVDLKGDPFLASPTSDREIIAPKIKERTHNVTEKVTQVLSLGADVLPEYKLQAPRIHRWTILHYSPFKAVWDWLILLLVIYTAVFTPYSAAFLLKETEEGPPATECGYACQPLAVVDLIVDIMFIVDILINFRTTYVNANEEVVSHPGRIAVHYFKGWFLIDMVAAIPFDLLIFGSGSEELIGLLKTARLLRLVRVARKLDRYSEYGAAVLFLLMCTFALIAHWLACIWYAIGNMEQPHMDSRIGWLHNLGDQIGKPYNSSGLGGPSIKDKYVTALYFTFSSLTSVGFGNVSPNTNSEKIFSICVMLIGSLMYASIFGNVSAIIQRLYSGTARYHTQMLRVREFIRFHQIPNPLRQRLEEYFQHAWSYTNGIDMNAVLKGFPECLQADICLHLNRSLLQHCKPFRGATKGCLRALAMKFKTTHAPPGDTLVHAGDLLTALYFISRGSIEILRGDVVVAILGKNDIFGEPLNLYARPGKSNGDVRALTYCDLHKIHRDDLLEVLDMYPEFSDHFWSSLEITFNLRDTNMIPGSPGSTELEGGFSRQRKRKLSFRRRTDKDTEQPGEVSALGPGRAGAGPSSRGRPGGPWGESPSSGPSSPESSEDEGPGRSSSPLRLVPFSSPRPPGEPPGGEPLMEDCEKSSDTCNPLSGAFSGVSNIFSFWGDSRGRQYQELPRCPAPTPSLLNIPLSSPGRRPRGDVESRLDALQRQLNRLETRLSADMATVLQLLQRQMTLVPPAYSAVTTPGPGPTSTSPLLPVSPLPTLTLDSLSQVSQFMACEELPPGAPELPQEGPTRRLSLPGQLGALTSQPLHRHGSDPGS
- protocol notes: primary screen, population patch clamp on CHO cells stably expressing hERG; higher = less effect of the substance
In all, about 310,000 compounds went through this assay and about 14,000 (4.5%) showed an effect of 50% or more. Effects have a minus sign here. What follows is part of a selection rich in strong results, with near analogues and random picks from the rest.
readout kind: hERG current change (%, negative = inhibition) at 10uM (%)

INSERT INTO measurements (smiles_representation, unit_of_measure, measurement) VALUES
  ('O=C1N(Cc2cccc(Cl)c2)C[C@@H]2C[C@@H](c3ccc4nonc4c3)N3CCC[C@@]123', '%', -55.1),
  ('CC(=O)Oc1ccc(-c2ccc(C(=O)OCC(=O)N(C)CC(=O)Nc3ccccc3Cl)cc2)cc1', '%', -68.9),
  ('CN(CC(=O)Nc1ccccc1Cl)C(=O)COC(=O)C1=COCCO1', '%', 5.89),
  ('CC[C@H](C)[C@H](NC(=O)OCc1ccccc1)C(=O)OCC(=O)N(C)CC(=O)Nc1ccccc1Cl', '%', -64.5),
  ('CN(CC(=O)Nc1ccccc1Cl)C(=O)COC(=O)c1ccc(Cl)nc1', '%', 4.99),
  ('CN(CC(=O)Nc1ccccc1Cl)C(=O)COC(=O)c1ccc(S(=O)(=O)C(F)F)cc1', '%', -69.9),
  ('Cc1nn(C(C)C)c(C)c1[C@@H]1C[C@H]2CN(Cc3cccc(Cl)c3)C(=O)[C@]23CCCN13', '%', -29.2),
  ('CN(CC(=O)Nc1ccccc1Cl)C(=O)COC(=O)C1CC1', '%', -2.87),
  ('CN(CC(=O)Nc1ccccc1Cl)C(=O)COC(=O)c1nc(Cl)ccc1Cl', '%', -20);
